The values you see were collected from patent US8877707B2.

Please go through the items and note down their pEC50.
Test system: HCV genotype 1b replicon in Huh 7 cells
Procedure text: HCV replicon assay (1b_Huh-Luc/Neo-ET cell line, luciferase readout)
Assay type: cell-based
Conditions: Hepatitis C virus, Huh-7; HCV 1b replicon; read-out: Inhibition of HCV genotype 1b
pEC50: −log10 of the molar value.

COC(=O)N[C@H](C(=O)N1CCC[C@H]1c1ncc(-c2ccc3cc(-c4ccc(-c5cnc([C@@H]6CCCN6C(=O)[C@H](NC(=O)OC)c6ccccc6)[nH]5)nn4)ccc3c2)[nH]1)[C@@H](C)OC ... > 9.00
COC(=O)N[C@@H](C)C(=O)N1CCC[C@H]1C(=O)N[C@H](C)c1ccc(-c2ccc3cc(-c4cnc([C@@H]5CCCN5C(=O)[C@H](C)NC(=O)OC)[nH]4)ccc3c2)cc1 ... 6.00 to 8.00
COC(=O)N[C@H](C(=O)N1CCC[C@H]1c1ncc(-c2ccc3cc(-c4cc5[nH]c([C@@H]6CCCN6C(=O)[C@@H](NC(=O)OC)[C@@H](C)OC)nc5cc4F)ccc3c2)[nH]1)[C@@H](C)OC ... > 9.00
COC(=O)N[C@H](C(=O)N1CCCC[C@H]1c1ncc(-c2ccc(-c3ccc4cc(-c5cnc([C@@H]6CCCN6C(=O)[C@@H](NC(=O)OC)C6CCOCC6)[nH]5)ccc4n3)cc2)[nH]1)C1CCOCC1 ... > 9.00
COC(=O)N[C@@H](C)C(=O)N1CCC[C@H]1c1ncc(-c2ccc3cc(-c4ccc(-c5cnc([C@@H]6CCCN6C(=O)[C@H](NC(=O)OC)c6ccsc6)[nH]5)cc4)ccc3c2)[nH]1 ... > 9.00

For every listed record, write down its pEC50.
1. COC(=O)N[C@H](C(=O)N1CCC[C@H]1CNC(=O)c1cnc2cc(-c3ccc4nc([C@@H]5CCCN5C(=O)[C@@H](NC(=O)OC)C(C)C)[nH]c4c3)ccc2c1)C(C)C
2. COC(=O)N[C@H](C(=O)N1CCC[C@H]1c1nc2ccc(-c3ccc4cc(-c5cnc([C@@H]6CCCN6C(=O)[C@@H](NC(=O)OC)[C@@H](C)OC)[nH]5)ccc4c3)cc2[nH]1)C1CCCCC1
3. CCC(CC)[C@H](NC(=O)OC)C(=O)N1CCC[C@H]1c1ncc(-c2ccc3cc(-c4ccc5nc([C@@H]6CCCN6C(=O)[C@@H](NC(=O)OC)C(CC)CC)[nH]c5n4)ccc3c2)[nH]1
4. COC(=O)N[C@H](C(=O)N1CCC[C@H]1c1nc2ccc(-c3ccc4cc(-c5ccc6nc([C@@H]7CCCN7C(=O)[C@@H](NC(=O)OC)C(C)C)[nH]c6c5)nnc4c3)cc2[nH]1)C(C)C

["8.00 to 9.00", "> 9.00", "> 9.00", "> 9.00"]

---

Provide the reported EC50 of each item.
System: HCV genotype 1b replicon in Huh 7 cells
Procedure text: HCV replicon assay (1b_Huh-Luc/Neo-ET cell line, luciferase readout)
Format: cell-based
Conditions: Hepatitis C virus, Huh-7; HCV 1b replicon; read-out: Inhibition of HCV genotype 1b

COC(=O)N[C@H](C(=O)N1CCC[C@H]1c1ncc(-c2ccc3cc(-c4cc5[nH]c([C@@H]6CCCN6C(=O)[C@@H](NC(=O)OC)C(C)C)nc5cn4)ccc3c2)[nH]1)C(C)C ... < 1 nM
CC[C@H](C)[C@H](NC(=O)OC)C(=O)N1CCC[C@H]1c1ncc(-c2ccc3cc(-c4ccc5nc([C@@H]6CCCN6C(=O)[C@@H](NC(=O)OC)[C@@H](C)OC)[nH]c5c4)ccc3c2)[nH]1 ... < 1 nM
C=CC[C@H](NC(=O)OC)C(=O)N1CCC[C@H]1c1ncc(-c2ccc3nc(-c4ccc(-c5cnc([C@@H]6CCCN6C(=O)[C@H](NC(=O)OC)c6ccccc6)[nH]5)cc4F)ccc3c2)[nH]1 ... < 1 nM
COC[C@H](NC(=O)OC)C(=O)N1CCC[C@H]1c1ncc(-c2ccc(-c3ccc4cc(-c5cnc([C@@H]6CCCN6C(=O)[C@H](COC)NC(=O)OC)[nH]5)ccc4c3)cc2)[nH]1 ... < 1 nM
COC(=O)N[C@H](C(=O)N1CCC[C@H]1C(=O)NCc1ccc(-c2ccc3cc(-c4cnc([C@@H]5CCCN5C(=O)[C@@H](NC(=O)OC)[C@@H](C)OC)[nH]4)ccc3c2)cc1)[C@@H](C)OC ... 10 to 999 nM

Give me EC50 for each of these compounds, listed below.
1. COC(=O)N[C@H](C(=O)N1CCC[C@H]1c1ncc(-c2ccc3nc(-c4ccc(-c5cnc([C@@H]6CCCN6C(=O)[C@@H](NC(=O)OC)C6CCOCC6)[nH]5)c(F)c4)ccc3c2)[nH]1)C(C)C
2. COC(=O)N[C@@H](C)C(=O)N1CCC[C@H]1C(=O)NCc1ccc(-c2ccc3cc(-c4cnc([C@@H]5CCCN5C(=O)[C@H](C)NC(=O)OC)[nH]4)ccc3c2)cc1
3. COC(=O)N[C@H](C(=O)N1CCC[C@H]1CNC(=O)c1ccc(-c2ccc3cc(-c4cnc([C@@H]5CCCN5C(=O)[C@@H](NC(=O)OC)C5CCOCC5)[nH]4)ccc3c2)cc1)C1CCOCC1
4. COC(=O)N[C@@H](C(=O)N1CCC[C@H]1CNC(=O)c1ccc2cc(-c3ccc(-c4cnc([C@@H]5CCCN5C(=O)[C@H](NC(=O)OC)c5ccccc5)[nH]4)cc3)ccc2c1)c1ccccc1

["< 1 nM", "10 to 999 nM", "< 1 nM", "< 1 nM"]
